Where these numbers come from: patent US20180291110A1

target: T1, human transferrin receptor (recombinant, for surface plasmon resonance) (human, UniProt P02786 89-760); experiment: SPR 25C
T1 construct: also called huTfR; human transferrin receptor-biotinylated
T1 sequence (P02786 89-760 limits assumed): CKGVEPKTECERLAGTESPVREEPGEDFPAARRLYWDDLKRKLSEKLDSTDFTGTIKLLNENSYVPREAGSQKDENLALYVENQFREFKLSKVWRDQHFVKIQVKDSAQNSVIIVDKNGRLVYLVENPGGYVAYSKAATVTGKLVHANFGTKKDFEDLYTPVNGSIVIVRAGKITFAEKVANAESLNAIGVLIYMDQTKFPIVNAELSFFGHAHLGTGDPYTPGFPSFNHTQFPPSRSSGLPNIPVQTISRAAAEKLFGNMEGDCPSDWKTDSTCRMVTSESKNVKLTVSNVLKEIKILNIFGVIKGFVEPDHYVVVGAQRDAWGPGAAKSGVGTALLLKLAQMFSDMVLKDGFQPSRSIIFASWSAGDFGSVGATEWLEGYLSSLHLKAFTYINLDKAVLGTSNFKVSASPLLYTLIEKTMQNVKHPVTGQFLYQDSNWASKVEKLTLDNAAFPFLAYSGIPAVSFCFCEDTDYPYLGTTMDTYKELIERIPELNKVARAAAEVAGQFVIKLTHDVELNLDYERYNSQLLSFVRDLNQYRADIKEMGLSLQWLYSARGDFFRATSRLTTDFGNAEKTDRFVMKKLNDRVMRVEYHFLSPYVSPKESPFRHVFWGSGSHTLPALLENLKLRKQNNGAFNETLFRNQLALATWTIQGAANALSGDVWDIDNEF
READOUT NAME: koff (s⁻¹)
Numbers only, in s⁻¹.

Task: Provide measured koff value, entry: 2/99 VH2/VL3 (antibody, V domains shown) VH: EVQLVETGGGLIQPGGSLRLSCAASGFSLSSYAMSWVRQAPGKGLEWVGYIWSGGSTDYADSVKGRFTISRDNSKNTLYLQMNSLRAEDTAVYYCARRYGTSYPDYGDANGFDPWGQGTLVTVSS VL: AYQMTQSPSSLSASVGDRVTITCRASQSISSYLNWYQQKPGKAPKLLIYRASTLASGVPSRFSGSGSGTDFTLTISSLQPEDFATYYCQQSYSSSNVDNTFGGGTKVEIK
Output: 0.00384

// each listed binder needs a value for koff
1. 2/99 VH1/VL10 (antibody, V domains shown) VH: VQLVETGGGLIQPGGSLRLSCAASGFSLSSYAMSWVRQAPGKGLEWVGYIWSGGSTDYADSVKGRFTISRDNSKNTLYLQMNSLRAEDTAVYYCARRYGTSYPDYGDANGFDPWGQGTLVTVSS VL: DIQMTQSPSSLSASVGDRVTITCRASQSISSYLSWYQQKPGKAPKLLIYRASTLASGVPSRFSGSRSGTDFTLTISSLQPEDFATYYCQQSYSSSNVDNTFGGGTKVEIK
2. 2/99 VH7/VL12 (antibody, V domains shown) VH: QQLVETGGGLIQPGGSLRLSCAASGFSLSSYAMSWVRQAPGKGLEWIGYIWSGGSTDYASWAKGRFTISRDNSKNTLYLQMNSLRAEDTAVYYCARRYGTSYPDYGDANGFDPWGQGTLVTVSS VL: DIQMTQSPSSLSASVGDRVTITCRASQSISSYLAWYQQKPGKAPKLLIYRASTLASGVPSRFSGSRSGTDFTLTISSLQPEDFATYYCQQHYSSSNVDNTFGGGTKVEIK

Output:
0.00677
0.00775
